# reported composite z-score; entries follow
# Test system: Fibrinogen (Alexa647-labelled)
# experiment-notes: fibrinogen binders on compound microarrays, profiling panel, artefact control for SMM control-protein annotation, biochemical, small-molecule microarray, 635/667 nm fluorescence (AID 1131);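 further: z-score merges 667 nm fluorescence with per-spot signal-to-noise over triplicate slides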
# condition-info: fibrinogen-A647 binding fluorescence, higher = more signal
# print the numeric value only

COCCCNC(=O)[C@]1(CCC(=O)OC(C)(C)C)N=C(c2ccc(OCCCO)cc2)O[C@@H]1c1ccccc1N=[N+]=[N-] :: 1.03
COC(=O)C1(C)C=C2C(=C(c3ccccc3)C(=O)C2C)CN1 (centres undefined) :: 0.494
CC(CCN1CCCCc2nc(C)c(C)cc21)=NOC(C)CN1CCCc2nc(C)c(C)cc21 (centres undefined) :: 0.651

Pending molecule:
Item: CC1CC/C=C\[C@H]2OC34C=CCN(Cn5nnc6ccccc65)C(=O)[C@H]3N(CCO)C(=O)[C@@H]4C2C(=O)O1 (some centres undefined) | composite z-score: -1.14
